tested_target: Human VPS34 (Homo sapiens (Human), UniProt Q8NEB9)
Sequence (Q8NEB9 whole entry): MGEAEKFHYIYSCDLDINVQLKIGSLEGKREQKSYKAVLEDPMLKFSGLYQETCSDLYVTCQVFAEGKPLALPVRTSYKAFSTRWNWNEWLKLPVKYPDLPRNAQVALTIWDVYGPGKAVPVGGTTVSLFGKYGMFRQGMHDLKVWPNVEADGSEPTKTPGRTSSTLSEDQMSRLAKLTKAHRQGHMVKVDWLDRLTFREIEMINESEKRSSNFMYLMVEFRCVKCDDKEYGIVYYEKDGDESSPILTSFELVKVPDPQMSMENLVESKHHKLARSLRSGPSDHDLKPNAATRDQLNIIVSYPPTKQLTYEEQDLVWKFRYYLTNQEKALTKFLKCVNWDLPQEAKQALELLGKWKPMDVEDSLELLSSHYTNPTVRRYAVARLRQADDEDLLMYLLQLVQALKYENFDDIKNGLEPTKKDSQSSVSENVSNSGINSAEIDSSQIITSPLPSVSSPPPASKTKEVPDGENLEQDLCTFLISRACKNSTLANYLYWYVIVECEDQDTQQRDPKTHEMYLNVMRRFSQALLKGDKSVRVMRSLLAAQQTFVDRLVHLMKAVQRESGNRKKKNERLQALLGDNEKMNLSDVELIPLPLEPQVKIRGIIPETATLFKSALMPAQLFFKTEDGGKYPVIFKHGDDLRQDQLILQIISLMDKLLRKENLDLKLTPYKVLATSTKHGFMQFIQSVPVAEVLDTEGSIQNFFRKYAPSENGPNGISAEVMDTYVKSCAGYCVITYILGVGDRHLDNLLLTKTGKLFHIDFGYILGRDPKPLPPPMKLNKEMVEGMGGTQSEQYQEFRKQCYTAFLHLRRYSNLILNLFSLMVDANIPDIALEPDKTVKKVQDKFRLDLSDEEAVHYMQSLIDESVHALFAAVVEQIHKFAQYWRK
method_description: Human VPS34 enzyme assay (Adapta TR-FRET)
Assay type: biochemical
setup_conditions: compound concentration 1.11 μM; read-out: Percent Inhibition
reported_endpoint: inhibition at 1.11 µM

q: inhibition at 1.11 µM for Cc1c(-c2ccnc(Nc3ccnc(C4CC4)n3)c2)cnc(Cl)c1NS(=O)(=O)c1ccc(F)cc1F ?
a: 90%

q: And for CC(=O)Nc1cc(-c2cnc3[nH]c(C)nc3c2)ccn1 ?
a: 88%

q: Now the same for CC(=O)Nc1cc(-c2cnc(C)c(NS(=O)(=O)c3ccc(OC(F)(F)F)cc3Cl)c2)ccn1
a: > 99%

q: Try this compound next: Cc1nccc(Nc2cc(-c3cncc(OC4CCc5c(F)cccc54)c3)ccn2)n1 (centres unmarked)
a: 83%

q: Next entry: CCc1ccc(S(=O)(=O)Nc2cc(-c3ccnc(NC(C)=O)c3)cnc2C)cc1
a: > 99%

q: Repeat with CCN(CC)C(=O)c1cc(-c2ccnc(NC(C)=O)c2)cnc1N
a: > 99%

q: Field entry: CC(=O)Nc1cc(-c2cnc(C)c(NS(=O)(=O)c3cccc(F)c3Cl)c2)ccn1
a: 96%

q: # repeat for COc1ncc(-c2ccnc(NC(C)=O)c2)cc1S(=O)(=O)Nc1cc(F)ccc1F
a: > 99%

* * *

Field: Percent Inhibition. Provide a value for each of the compounds that follow.
tested_target: Human VPS34 (Homo sapiens (Human))
method_description: Human VPS34 enzyme assay (Adapta TR-FRET)
Format: biochemical
setup_conditions: compound concentration 1.11 μM
Unit % implied. Number only.

q: What Percent Inhibition value was documented for this compound, CC(=O)Nc1cc(-c2cnc(Cl)c(NS(=O)(=O)c3cn(C)nc3C(F)(F)F)c2C)ccn1 ?
a: 99

q: Also Cc1c(-c2ccnc(N)c2)cnc(Cl)c1NS(=O)(=O)c1ccc(F)cc1F ?
a: 91

q: Try the compound Cc1nccc(Nc2cc(-c3cnc(N)c(C(=O)N(C)C45CC(C4)C5)c3)ccn2)n1
a: 100

q: # repeat for CCc1c(-c2ccnc(Nc3ccnc(C)n3)c2)cnc(Cl)c1NS(=O)(=O)c1ccc(F)cc1F
a: 79

q: Do the same for Cc1nc(Nc2cc(-c3cnc(Cl)c(NS(=O)(=O)c4ccc(F)cc4F)c3C)ccn2)ccc1C#N please
a: 93

* * *

Provide the reported inhibition at 1.11 µM of each item.
tested_target: Human VPS34 (Homo sapiens (Human))
method_description: Human VPS34 enzyme assay (Adapta TR-FRET)
Assay type: biochemical
setup_conditions: compound concentration 1.11 μM; read-out: Percent Inhibition

q: # input compound: CC(=O)Nc1cc(-c2cnc(Cl)c(NS(=O)(=O)c3ccc(Cl)cc3F)c2C)ccn1 ; wanted: its inhibition at 1.11 µM
a: 100%

q: Continue with Cc1nccc(Nc2cc(-c3cnc(Cl)c(C(=O)O)c3C)ccn2)n1
a: 93%

q: Query CN(C)S(=O)(=O)Nc1cc(-c2ccnc(Nc3ccnc(C4CC4)n3)c2)cn2nccc12 next
a: > 99%

q: What do we get for CC(=O)Nc1cc(-c2cnc(Cl)c(S(=O)(=O)N[C@@H](CO)c3ccccc3)c2)ccn1 ?
a: 92%

q: Then what about the compound COc1ccc(S(=O)(=O)Nc2cc(-c3ccnc(NC(C)=O)c3)cnc2C)c(F)c1 ?
a: > 99%

q: Thanks! And CC(=O)Nc1cc(-c2cncc(S(=O)(=O)NC3C4CC5CC(C4)CC3C5)c2)ccn1 (centres unmarked) ?
a: 97%

q: Let us now turn to CC(=O)Nc1cc(-c2cnc(C)c(NC(=O)c3ccc(F)cc3F)c2)ccn1
a: 68%

q: Try this compound next: CC(=O)Nc1cc(-c2cncc(N3CCOc4cc(F)ccc4S3(=O)=O)c2)ccn1
a: > 99%

q: For CNc1ncc(-c2ccnc(NC(C)=O)c2)cc1C(=O)N(C)C12CC(C1)C2 then?
a: 94%

q: Also, CC(=O)Nc1cc(-c2cnc(C)c(NS(=O)(=O)c3ccccc3F)c2)ccn1 please.
a: > 99%

q: Record: Cc1ncc(-c2ccnc(Nc3ncccn3)c2)cc1NS(=O)(=O)c1ccc(F)cc1F
a: > 99%

q: Can you handle CNc1ncc(-c2ccnc(NC(C)=O)c2)cc1S(=O)(=O)Nc1ccccc1 next?
a: > 99%

q: Moving on to COC(=O)Nc1cc(-c2cnc(N)c(C(=O)N(C)C)c2)ccn1
a: > 99%

q: // repeat for CC(=O)Nc1cc(-c2cnc(N)c(NCC3CC3)c2)ccn1 and report
a: > 99%

q: Proceed to CC(=O)Nc1cc(-c2cncc(S(=O)(=O)Nc3ccc(F)cc3F)c2)ccn1
a: > 99%

q: Continue with COc1cccc(S(=O)(=O)Nc2cc(-c3ccnc(NC(C)=O)c3)cnc2C)c1
a: > 99%

q: Would you mind doing CC(=O)Nc1cc(-c2cnc(C)c(NS(=O)(=O)c3cc(F)ccc3F)c2)ccn1 as well?
a: > 99%
